Cited source: PubChem BioAssay (NCI)

Test system: ACHN renal
Assay: NCI tumour cell line growth inhibition, 48 h
TEST READOUT: TGI

Recorded TGI (compound O=C1C(=O)N(C2CCCCC2)C(=S)N1C1CCCCC1 ): > 100 µM

Note to self: TGI recorded for Cc1ccc(-c2n[nH]c(=O)[nH]2)cc1 was > 100 µM

Reported TGI ( CN(C)c1ccc(N=Nc2c([O-])ccc3ccccc23)cc1.[C-]#[O+].[C-]#[O+].[Ir] ) = 55.2 µM

Value of measured TGI for the entry O=[N+]([O-])c1nccn1CC1OC(n2ccnc2[N+](=O)[O-])C(O)C(O)C1O (stereo unspecified) : > 100 µM

The reported TGI of the compound CC(C)[C@@H](COC(C)(C)C)N=CN1CCc2c([nH]c3ccccc23)C1 was > 100 µM

Noted for Nc1nc(Nc2cccc(F)c2)nc2ccccc12 : its TGI reads 76.8 µM

The compound listed as COc1ccc(COCC(Cn2ccnc2)OCc2ccc(C(=O)O)cc2)cc1 (stereo unspecified) has a reported TGI of > 100 µM

TGI reading for COC(=O)c1cc(-c2c[nH]cc2C(=O)OCc2ccccc2)cn1S(=O)(=O)c1ccc(C)cc1 : > 100 µM

Looking up O=[N+]([O-])c1ccc(N=NN2CCCC2)cc1 , I see its TGI listed as > 100 µM

response.value for CCc1cc2c(cc1CCCC(=O)O)CC1(Cc3ccc(C(=O)O)cc3C1)C2 (stereo unspecified) (field: TGI) = > 100 µM

Measured TGI, CC(C)N1CSC(=S)N(Cc2ccccc2)C1 : > 10 µM
